# System under test: T1, human IL4Rα/Fc (R and D Systems 604-4R) (human, UniProt P24394 26-231, limits assumed, biotin labelled in the assay of Example 5)
# T1 construct: bought protein; also called IL-4Rα/Fc (R&D systems Cat. No. 604-4R-050); not shown: Fc part of the bought fusion
# T1 sequence (looked up): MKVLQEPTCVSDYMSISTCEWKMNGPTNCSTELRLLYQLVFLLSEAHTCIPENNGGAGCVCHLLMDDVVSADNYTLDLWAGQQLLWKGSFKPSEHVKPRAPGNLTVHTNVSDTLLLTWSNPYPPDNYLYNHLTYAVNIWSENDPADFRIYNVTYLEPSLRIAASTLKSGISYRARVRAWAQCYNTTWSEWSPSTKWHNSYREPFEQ
# Assay method text: HTRF receptor-ligand assay, purified scFv against biotinylated human IL4
Quick reference: Ki of the listed items.
Give the value in nM but do not write nM after it.

Worked cases, answers included:
| Binder | Unit abbreviation | Ki |
| --- | --- | --- |
| Antibody 4 scFv (scFv, V domains shown, tested as purified scFv) VH: QVQLVQSGAEVKKPGASVKVSCKASGYAFTSYYMHWARQAPGQGLEWMGIINPSGGSTSYAQKFQGRVTMTRDTSTSTVYMELSSLRSEDTAVYYCARGKWWLYNWGKGTLVTVSS VL: QSVLTQPPSVSAAPGQKVTISCSGGSSNIGNSYVSWYQQLPGTAPKLLIYDNNKRPSGIPDRFSGSKSGTSATLAITGLQTGDEADYYCGTWDTSSPPQPIFGTGTKLTVL | nM | 0.8 |
| Antibody 36 scFv (scFv, V domains shown, tested as purified scFv) VH: QVQLVQSGAEVKKPGASVKVSCKASGYAFTSYYMHWARQAPGQGLEWMGIINPSGGSASYAQKFQGRVTMTRDTSTSTVYMELSSLRSEDTAVYYCARGKYWMYDWGKGTLVTVSS VL: QSVLTQPPSVSAAPGQKVTISCSGGSSNIGNSYVSWYQQLPGTAPKLLIYDNNKRPSGIPDRFSGSKSGTSATLAITGLQTGDEADYYCGTWDSSTVWEWPFGTGTKLTVL | nM | 0.1 |

Then there is this binder:
Asked: Any idea what Ki was measured for Antibody 37GL scFv (scFv, V domains shown, tested as purified scFv; also called NCIMB 41600) VH: QVQLVQSGAEVKKPGASVKVSCKASGYAFTSYYMHWVRQAPGQGLEWMGIINPRGGSTSYAQKFQGRVTMTRDTSTSTVYMELSSLRSEDTAVYYCARGKYWMYDWGKGTLVTVSS VL: QSVLTQPPSVSAAPGQKVTISCSGGGSSIGNSYVSWYQQLPGTAPKLLIYDNNKRPSGIPDRFSGSKSGTSATLGITGLQTGDEADYYCGTWDTSPVWEWPFGTGTKLTVL ?
Given back: 0.061
